Reference for the values: patent US20130230533A1

Target: T1, Monomeric monkey CD48-mmH (monkey)
T1 construct: Soluble monkey CD48 with a myc-myc-hexa-histidine C-terminal tag; the whole entry is the construct; also called mfCD48-mmH
T1 chain: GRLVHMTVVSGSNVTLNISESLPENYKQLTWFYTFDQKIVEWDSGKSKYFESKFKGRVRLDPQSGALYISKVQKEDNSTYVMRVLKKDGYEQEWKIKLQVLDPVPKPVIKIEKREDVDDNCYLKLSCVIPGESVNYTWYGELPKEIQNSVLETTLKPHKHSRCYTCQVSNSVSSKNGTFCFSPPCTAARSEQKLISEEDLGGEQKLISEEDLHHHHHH
Experiment: SPR (Biacore), antibody captured by anti-Fc, CD48 in solution, 37 C
Reported kon is given for each of the following binders.

Answered examples (2):
| binder | kon |
| --- | --- |
| H4H1770P (antibody, human IgG4, V domains shown, Human IgG4 Fc (H4H)) VH: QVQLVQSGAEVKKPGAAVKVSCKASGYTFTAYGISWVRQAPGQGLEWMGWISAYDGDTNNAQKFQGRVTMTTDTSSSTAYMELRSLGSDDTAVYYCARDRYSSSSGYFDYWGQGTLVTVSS VL: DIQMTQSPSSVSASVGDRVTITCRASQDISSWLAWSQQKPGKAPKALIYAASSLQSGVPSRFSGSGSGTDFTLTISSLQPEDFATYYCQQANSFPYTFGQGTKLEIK | 396000 M⁻¹ s⁻¹ |
| H4H1779P (antibody, human IgG4, V domains shown, Human IgG4 Fc (H4H)) VH: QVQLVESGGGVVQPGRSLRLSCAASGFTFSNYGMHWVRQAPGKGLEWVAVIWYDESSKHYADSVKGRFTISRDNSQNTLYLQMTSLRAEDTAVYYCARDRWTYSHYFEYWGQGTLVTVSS VL: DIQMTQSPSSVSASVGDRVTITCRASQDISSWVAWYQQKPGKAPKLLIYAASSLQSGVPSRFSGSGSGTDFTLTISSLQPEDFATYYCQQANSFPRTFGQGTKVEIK | 277000 M⁻¹ s⁻¹ |

Please look at the following binder next.
## Task Answer with the recorded kon of H4H1707N (antibody, V domains shown, Human IgG4 Fc (H4H)) VH: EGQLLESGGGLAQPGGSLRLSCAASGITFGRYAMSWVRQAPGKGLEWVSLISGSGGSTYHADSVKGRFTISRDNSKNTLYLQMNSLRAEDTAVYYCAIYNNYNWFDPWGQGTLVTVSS VL: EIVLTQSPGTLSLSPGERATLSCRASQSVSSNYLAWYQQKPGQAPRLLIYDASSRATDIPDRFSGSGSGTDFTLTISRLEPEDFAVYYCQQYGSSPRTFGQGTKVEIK only.
## Result 327000 M⁻¹ s⁻¹
